target_entity: AEA-DA lipid probe targets in Neuro2a cells (Mus musculus)
experimental_setup: competitor 25 μM
Kindly supply the reported SILAC ratio Hspa5 values for the records listed here.
One number for each entry.

Answered cases to consult:
{"compound": "C=CCN(C)CCCCCCOc1ccc(C(=O)c2ccc(Br)cc2)c(F)c1 [Ro 48-8071, reference compound]", "SILAC ratio Hspa5": 0.9}
{"compound": "CN1CCN(C(=O)c2[nH]c3ccc([N+](=O)[O-])cc3c2-c2ccccc2)CC1", "SILAC ratio Hspa5": 1.4}

# return SILAC ratio Hspa5 for each item in the list
1. O=C(/C=C/c1cccnc1)NCCCCC1CCN(C(=O)c2ccccc2)CC1 [FK-866, reference compound]
2. CN1CCN(C(=O)c2c(-c3ccccc3)c3cc([N+](=O)[O-])ccc3n2C)CC1

[out]
1.2
1.4

---

Kindly supply the reported SILAC ratio Vim values for the records listed here.
target_entity: AEA-DA lipid probe targets in Neuro2a cells (Mus musculus)
experimental_setup: competitor 25 μM
Numbers only.

# return SILAC ratio Vim for each item in the list
1. C=CCN(C)CCCCCCOc1ccc(C(=O)c2ccc(Br)cc2)c(F)c1 [Ro 48-8071, reference compound]
2. CN1CCN(C(=O)c2[nH]c3ccc([N+](=O)[O-])cc3c2-c2ccccc2)CC1 [MJN228]
3. CN1CCN(C(=O)c2c(-c3ccccc3)c3cc([N+](=O)[O-])ccc3n2C)CC1 [KML110]

[out]
1: 0.8; 2: 1.2; 3: 1.2

[in] Supply measured SILAC ratio Vim of O=C(/C=C/c1cccnc1)NCCCCC1CCN(C(=O)c2ccccc2)CC1 [FK-866, reference compound] in your reply.
[out] 1.2

---

target_entity: AEA-DA lipid probe targets in Neuro2a cells (Mus musculus)
experimental_setup: competitor 25 μM
Kindly supply the reported SILAC ratio Fxr1 values for the records listed here.
One number for each entry.

Answered cases to consult:
{"compound": "CN1CCN(C(=O)c2c(-c3ccccc3)c3cc([N+](=O)[O-])ccc3n2C)CC1", "SILAC ratio Fxr1": 1.5}
{"compound": "C=CCN(C)CCCCCCOc1ccc(C(=O)c2ccc(Br)cc2)c(F)c1 [Ro 48-8071, reference compound]", "SILAC ratio Fxr1": 0.9}

# return SILAC ratio Fxr1 for each item in the list
1. O=C(/C=C/c1cccnc1)NCCCCC1CCN(C(=O)c2ccccc2)CC1 [FK-866, reference compound]
2. CN1CCN(C(=O)c2[nH]c3ccc([N+](=O)[O-])cc3c2-c2ccccc2)CC1

[out]
[1.4, 1.3]

---

target_entity: AEA-DA lipid probe targets in Neuro2a cells (Mus musculus)
experimental_setup: competitor 25 μM
experimental_endpoint: SILAC ratio, Mboat7

Answered cases to consult:
{"compound": "O=C(/C=C/c1cccnc1)NCCCCC1CCN(C(=O)c2ccccc2)CC1 [FK-866, reference compound]", "target_entity": "AEA-DA lipid probe targets in Neuro2a cells (Mus musculus)", "SILAC ratio, Mboat7": 1.1}
{"compound": "CN1CCN(C(=O)c2[nH]c3ccc([N+](=O)[O-])cc3c2-c2ccccc2)CC1", "target_entity": "AEA-DA lipid probe targets in Neuro2a cells (Mus musculus)", "SILAC ratio, Mboat7": 1.6}
{"compound": "C=CCN(C)CCCCCCOc1ccc(C(=O)c2ccc(Br)cc2)c(F)c1 [Ro 48-8071, reference compound]", "target_entity": "AEA-DA lipid probe targets in Neuro2a cells (Mus musculus)", "SILAC ratio, Mboat7": 1.1}

Now let's try a different one.
[in] Supply measured SILAC ratio, Mboat7 of CN1CCN(C(=O)c2c(-c3ccccc3)c3cc([N+](=O)[O-])ccc3n2C)CC1 in your reply.
[out] 1.7

Hey, just so you know, these numbers are from patent US10168342B2.
